target desc: full length mouse TREX1 (Mus musculus, UniProt Q91XB0)
Construct: N-terminally His-Tev tagged full length mouse TREX1; made in house; host or cells: E. coli
protocol details: mTREX1 Biochemical Assay (fluorescence, dsDNA substrate degradation)
condition: biochemical, read-out: mTREX1 IC50
Collected IC50 values appear next to each entry.

CC(c1nc(C(=O)Nc2cnoc2)c(O)c(=O)n1C)C(c1cnn(CC(F)(F)F)c1)c1ccccc1C#N (single isomer, unassigned) [Example 22 D2E1] : > 0.01 µM
Cc1cn(C)nc1C(c1ccccc1C#N)C(C)c1nc(C(=O)Nc2cnoc2)c(O)c(=O)n1C (single isomer, unassigned) [Example 64 D2E1] : 0.001 to 0.01 µM
CC(c1nc(C(=O)Nc2cnoc2)c(O)c(=O)n1C)C(c1cnn(C)c1)c1cc(F)ccc1Cl (single isomer, unassigned) [Example 61 D2E1] : > 0.01 µM

The recorded IC50 with full length mouse TREX1 (Mus musculus, UniProt Q91XB0) for Cc1ncc(C(c2ccccc2Cl)C(C)c2nc(C(=O)Nc3cnoc3)c(O)c(=O)n2C)cn1 (single isomer, unassigned) [Example 44 D2E1] was > 0.01 µM

The recorded IC50 with full length mouse TREX1 (Mus musculus, UniProt Q91XB0) for CCc1cnn(C(c2ccccc2Cl)C(C)c2nc(C(=O)Nc3cnoc3)c(O)c(=O)n2C)c1 (single isomer, unassigned) [Example 134 D1E1] was 0.001 to 0.01 µM

The recorded IC50 with full length mouse TREX1 (Mus musculus, UniProt Q91XB0) for Cc1nc(C)c(C(c2ccccc2C#N)C(C)c2nc(C(=O)Nc3cnoc3)c(O)c(=O)n2C)nc1C (single isomer, unassigned) [Example 122 D2E1] was > 0.01 µM

The recorded IC50 with full length mouse TREX1 (Mus musculus, UniProt Q91XB0) for CCn1c(C(C)C(c2cnn(C)c2)c2ccccc2C#N)nc(C(=O)Nc2cnoc2)c(O)c1=O (single isomer, unassigned) [Example 149 D1E2] was 0.001 to 0.01 µM

----------
target desc: full length human TREX1 (Homo sapiens, UniProt Q9NSU2)
Construct: N-terminally His-Tev tagged full length human TREX1; made in house; host or cells: E. coli
Sequence (Q9NSU2 whole entry): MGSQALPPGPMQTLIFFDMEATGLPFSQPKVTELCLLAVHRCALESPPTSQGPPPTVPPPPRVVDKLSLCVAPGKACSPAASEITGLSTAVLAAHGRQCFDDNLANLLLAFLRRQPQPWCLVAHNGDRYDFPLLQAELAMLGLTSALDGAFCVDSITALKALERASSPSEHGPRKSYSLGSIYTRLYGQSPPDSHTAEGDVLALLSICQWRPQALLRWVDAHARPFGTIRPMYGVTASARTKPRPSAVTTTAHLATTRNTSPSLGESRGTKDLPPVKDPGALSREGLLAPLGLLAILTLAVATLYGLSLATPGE
protocol details: hTREX1 Biochemical Assay (fluorescence, dsDNA substrate degradation)
condition: biochemical, read-out: hTREX1 IC50
pIC50: −log10 of the molar value.
assay readout: pIC50

Example compounds with recorded pIC50:
CCn1cc(C(c2ccccc2C#N)C(C)c2nc(C(=O)Nc3cnoc3)c(O)c(=O)n2C)cn1 (single isomer, unassigned) [Example 13 D1E1] : > 9.00
Cc1cnc(C(c2ccccc2C#N)C(C)c2nc(C(=O)Nc3cnoc3)c(O)c(=O)n2C)c(C)n1 (single isomer, unassigned) [Example 123 D2E2] : < 8.00
CC(c1nc(C(=O)Nc2cnoc2)c(O)c(=O)n1C)C(c1ncn(C)n1)c1ccccc1C#N (single isomer, unassigned) [Example 51 D2E1] : < 8.00
CC(c1nc(C(=O)Nc2cnoc2)c(O)c(=O)n1C)C(c1cnn(CC2COC2)c1)c1cc(F)ccc1Cl (single isomer, unassigned) [Example 94 D1E2] : < 8.00
CCn1cc(C(c2ccc(F)cc2C#N)C(C)c2nc(C(=O)Nc3cnoc3)c(O)c(=O)n2C)cn1 (single isomer, unassigned) [Example 16 D1E1] : > 9.00

Field pIC50 (entry CC(c1nc(C(=O)Nc2cnoc2)c(O)c(=O)n1C)C(c1cnn(C)c1)c1ccccc1Cl (single isomer, unassigned) [Example 77 D2E2] ) reads < 8.00

Field pIC50 (entry Cc1nn(C)cc1C(c1cc(F)ccc1C#N)C(C)c1nc(C(=O)Nc2cnoc2)c(O)c(=O)n1C (single isomer, unassigned) [Example 57 D2E1] ) reads 8.00 to 9.00

Field pIC50 (entry Cc1cc(C(c2ccccc2C#N)C(C)c2nc(C(=O)Nc3cnoc3)c(O)c(=O)n2C)ccn1 (single isomer, unassigned) [Example 6 D1E2] ) reads 8.00 to 9.00

Field pIC50 (entry Cn1cc(C(c2ccccc2C#N)C(c2nc(C(=O)Nc3cnoc3)c(O)c(=O)n2C)C(F)(F)F)cn1 (single isomer, unassigned) [Example 40 D2E2] ) reads < 8.00

----------
target desc: full length mouse TREX1 (Mus musculus, UniProt Q91XB0)
Construct: N-terminally His-Tev tagged full length mouse TREX1; made in house; host or cells: E. coli
Sequence (Q91XB0 1-314): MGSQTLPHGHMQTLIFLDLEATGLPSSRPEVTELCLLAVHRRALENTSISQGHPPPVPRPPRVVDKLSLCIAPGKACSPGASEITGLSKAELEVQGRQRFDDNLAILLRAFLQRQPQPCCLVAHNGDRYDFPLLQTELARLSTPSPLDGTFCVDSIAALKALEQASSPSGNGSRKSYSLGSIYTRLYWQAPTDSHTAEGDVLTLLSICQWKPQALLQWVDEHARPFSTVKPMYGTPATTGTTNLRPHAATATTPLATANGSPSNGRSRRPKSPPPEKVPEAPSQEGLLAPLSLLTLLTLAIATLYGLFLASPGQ
protocol details: mTREX1 Biochemical Assay (fluorescence, dsDNA substrate degradation)
condition: biochemical, read-out: mTREX1 IC50
Description: Degradation of the dsDNA liberates free fluorophore to produce a fluorescent signal. Specifically, 7.5 μL of N-terminally His-Tev tagged full length mouse TREX1 (expressed in E. coli and purified in house) in reaction buffer (50 mM Tris, 150 mM NaCl, 2 mM DTT, 0.1 mg/mL BSA, 0.01% (w/v) Tween-20, 5 mM MgCl2, pH 7.4) was added to a 384-well Black ProxiPlate Plus (PerkinElmer) which already contained compound (150 nL) at varying concentrations as a 10 point dose-response in DMSO. […]
pIC50: −log10 of the molar value.
Collected pIC50 values appear next to each entry.

Example compounds with recorded pIC50:
COCCn1cc(C(c2cc(F)ccc2Cl)C(C)c2nc(C(=O)Nc3cnoc3)c(O)c(=O)n2C)cn1 (single isomer, unassigned) [Example 97 D1E2] : < 8.00
CC(c1nc(C(=O)Nc2cnoc2)c(O)c(=O)n1C)C(c1cnn(CCN(C)C)c1)c1ccccc1C#N (single isomer, unassigned) [Example 33 D2E1] : < 8.00
CC(c1nc(C(=O)Nc2cnoc2)c(O)c(=O)n1C)C(c1cnn(CCOC(F)(F)F)c1)c1cc(F)ccc1C#N (single isomer, unassigned) [Example 101 D1E1] : < 8.00
CC(C)c1cnn(C(c2ccccc2Cl)C(C)c2nc(C(=O)Nc3cnoc3)c(O)c(=O)n2C)c1 (single isomer, unassigned) [Example 135 D1E1] : 8.00 to 9.00
CCn1cc(C(c2ccccc2C#N)C(C)c2nc(C(=O)Nc3cnoc3)c(O)c(=O)n2C)c(C)n1 (single isomer, unassigned) [Example 70 D1E1] : > 9.00

// below: pIC50 requested for another compound
The recorded pIC50 with full length mouse TREX1 (Mus musculus, UniProt Q91XB0) for CC(c1nc(C(=O)Nc2cnoc2)c(O)c(=O)n1C)C(c1cnn(CC(C)(C)O)c1)c1ccccc1C#N (single isomer, unassigned) [Example 36 D1E2] was < 8.00

----------
target desc: full length mouse TREX1 (Mus musculus, UniProt Q91XB0)
Construct: N-terminally His-Tev tagged full length mouse TREX1; made in house; host or cells: E. coli
protocol details: mTREX1 Biochemical Assay (fluorescence, dsDNA substrate degradation)
condition: biochemical, read-out: mTREX1 IC50
Collected IC50 values appear next to each entry.

Example compounds with recorded IC50:
CC(c1nc(C(=O)Nc2cnoc2)c(O)c(=O)n1C)C(c1cnn(CCN2CCOCC2)c1)c1ccccc1C#N (single isomer, unassigned) [Example 20 D1E1] : 1 to 10 nM
CC(c1nc(C(=O)Nc2cnoc2)c(O)c(=O)n1C)C(c1cnn(C)c1)c1ccc(C(F)(F)F)cc1C#N (single isomer, unassigned) [Example 30 D2E2] : > 10 nM
Cc1nnc(C(c2ccccc2Cl)C(C)c2nc(C(=O)Nc3cnoc3)c(O)c(=O)n2C)o1 (single isomer, unassigned) [Example 156 D2E1] : > 10 nM

The recorded IC50 with full length mouse TREX1 (Mus musculus, UniProt Q91XB0) for CC(c1nc(C(=O)Nc2cnoc2)c(O)c(=O)n1C)C(c1cnn(C)c1)c1cc(Cl)ccc1C#N (single isomer, unassigned) [Example 26 D1E2] was 1 to 10 nM

The recorded IC50 with full length mouse TREX1 (Mus musculus, UniProt Q91XB0) for CCn1cc(C(c2ccccc2C#N)C(C)c2nc(C(=O)Nc3cnoc3)c(O)c(=O)n2C)cn1 (single isomer, unassigned) [Example 13 D1E2] was > 10 nM

The recorded IC50 with full length mouse TREX1 (Mus musculus, UniProt Q91XB0) for CC(c1nc(C(=O)Nc2cnoc2)c(O)c(=O)n1C)C(c1cnn(C(C)C)c1)c1ccccc1C#N (single isomer, unassigned) [Example 105 D1E2] was 1 to 10 nM
